Task for the reader: assign each of the following compounds its reported melting point.

Reported melting point, compound N#Cc1c(-c2ccc(S(=O)(=O)NC(CF)CF)cn2)n(C2CCCC2)c2cc(OC(F)(F)F)ccc12 : ____
141 to 143 °C

What value of melting point has been recorded for this entry: Cc1cc2c(cc1F)c(C#N)c(-c1ccc(S(=O)(=O)N[C@@H](C)C(F)(F)F)cn1)n2-c1ccccn1
160 to 164 °C

Fill in the blank: the reported melting point of Cc1cc2c(cc1O)c(C(N)=O)c(-c1ccc(S(=O)(=O)N[C@@H](C)C(F)(F)F)cn1)n2C1CCCC1 is ____.
272 to 274 °C

Dear colleague, I am looking for the recorded melting point of the following compound: CC(C)NS(=O)(=O)c1ccc(-c2c(C#N)c3cc(OC(F)F)ccc3n2C2CCCC2)nc1
177 to 179 °C

Consider the compound Cc1cc(S(=O)(=O)N[C@@H](C)C(F)(F)F)cnc1-c1c(C#N)c2cc(F)c(OC(F)F)cc2n1C1CCC1 and give its measured melting point.
150 to 155 °C

So what's the measured melting point for this one? Cc1cc2c(cc1Cl)c(C#N)c(-c1ccc(S(=O)(=O)NC(CF)CF)cn1)n2C1CCC1
189 to 193 °C

So what's the measured melting point for this one? CCc1cc2c(cc1F)c(C#N)c(-c1ccc(S(=O)(=O)N[C@@H](C)C(F)(F)F)cn1)n2-c1ccncn1
202 to 206 °C

Consider the compound Cc1cc2c(cc1O)c(C#N)c(-c1ccc(S(=O)(=O)N[C@H](C)C(F)(F)F)cn1)n2C1CCC1 and give its measured melting point.
209 to 210 °C

# get_value(readout='melting point', item= CCc1cc2c(cc1F)c(C#N)c(-c1ccc(S(=O)(=O)N[C@@H](C)C(F)(F)F)cn1)n2-c1cccc(OC)c1 )
229 to 233 °C

May I ask what melting point has been recorded for C[C@H](NS(=O)(=O)c1cnc(-c2c(C#N)c3ccc(CC(F)F)cc3n2CC2CC2)nc1)C1CC1 ?
144 to 150 °C

For the compound Cc1ccc2c(c1)c(C#N)c(-c1ncc(S(=O)(=O)NC(C)C)cn1)n2C1CCC1 , what melting point is on record?
134 to 138 °C

Data request, read-out melting point, for Cc1cc(-c2c(C#N)c3cc(F)ccc3n2-c2ccccn2)ncc1S(=O)(=O)N[C@@H](C)C(F)(F)F
180 to 186 °C

Consider the compound CC(C)NS(=O)(=O)c1ccc(-c2c(C#N)c3ccc(OCC(F)F)cc3n2C2CCC2)nc1 and give its measured melting point.
171 to 173 °C

Could you tell me which melting point is on file for Cc1cc2c(cc1F)c(C#N)c(-c1ccc(S(=O)(=O)N[C@@H](C)C(F)(F)F)cn1)n2-c1cncnc1 ?
198 to 202 °C

# get_value(readout='melting point', item= CCc1cc2c(cc1F)c(C#N)c(-c1ccc(S(=O)(=O)N(c3ncccn3)C3(C)CC3)cn1)n2-c1ncccn1 )
193 to 200 °C

Value lookup for melting point; key = Cc1ccc2c(C#N)c(-c3ccc(S(=O)(=O)NC(C)(C)C(F)(F)F)cn3)n(C3CCCC3)c2c1
202 to 211 °C

So what's the measured melting point for this one? Cc1ccc2c(c1)c(C#N)c(-c1ccc(S(=O)(=O)N[C@@H](C)C3CC3)cn1)n2C1CCCCC1
169 to 174 °C

For the compound C[C@@H](NS(=O)(=O)c1ccc(-c2c(C#N)c3cc(F)c(OC(F)F)cc3n2CC2CC2)nc1)C(F)(F)F , what melting point is on record?
148 to 153 °C

Could you tell me which melting point is on file for CC(C)NS(=O)(=O)c1ccc(-c2c(C#N)c3cc(F)ccc3n2C2CCC2)nc1 ?
203 to 205 °C

Name the recorded melting point for CCc1cc2c(cc1F)c(C(N)=O)c(-c1ccc(S(=O)(=O)N[C@@H](C)C(F)(F)F)cn1)n2-c1ncc(C)cn1 .
257 to 261 °C

Quick one: melting point for C[C@H](NS(=O)(=O)c1ccc(-c2c(C#N)c3cc(F)c(C4CC4)cc3n2-c2ccc(F)cn2)nc1)C(F)(F)F ?
240 to 242 °C

Return reported melting point; argument: C[C@@H](NS(=O)(=O)c1ccc(-c2c(C#N)c3ccc(OC(F)F)cc3n2-c2ccccn2)nc1)C(F)(F)F
159 to 161 °C

For the compound C[C@H](NS(=O)(=O)c1ccc(-c2c(C#N)c3ccc(OC(F)F)cc3n2C2CCCC2)nc1)C1CC1 , what melting point is on record?
176 to 182 °C

So what does the record say about melting point for N#Cc1c(-c2ccc(S(=O)(=O)NC(CF)CF)cn2)n(C2CCCC2)c2cc(Cl)ccc12 ?
236 to 240 °C

Could you tell me which melting point is on file for C[C@H](NS(=O)(=O)c1ccc(-c2c(C#N)c3cc(Br)c(O)cc3n2C2CCC2)nc1)C(F)(F)F ?
223 to 224 °C

// returns reported melting point for input Cc1cc2c(cc1Cl)c(C#N)c(-c1ccc(S(=O)(=O)N[C@@H](C)C(F)(F)F)cn1)n2C1CCC1
209 to 210 °C

Reported melting point, compound Cc1ccc2c(c1)c(C#N)c(-c1ncc(S(=O)(=O)NC(CF)CF)cn1)n2C1CCC1 : ____
140 to 145 °C

May I ask what melting point has been recorded for CC(C)NS(=O)(=O)c1ccc(-c2c(C#N)c3ccc(OC(F)F)cc3n2C2CC2)cn1 ?
209 to 210 °C

Any idea what melting point was measured for N#Cc1c(-c2ncc(S(=O)(=O)NC(CF)CF)cn2)n(C2CCCC2)c2cc(C3CC3)ccc12 ?
215 to 219 °C
